Test: Transplacental transfer efficiency (TTE): cord serum at delivery divided by maternal serum concentration, present study
Assay type: in vivo, human
Conditions: cord serum at delivery / maternal serum at 15 weeks of gestation
measured endpoint: TTE calculated from cord:maternal serum concentrations, minimum
Give the value as a plain number.

>>> quantitative_result("O=C(O)C(F)(F)C(F)(F)C(F)(F)C(C(F)(F)F)(C(F)(F)F)C(F)(F)F")
0.02
>>> quantitative_result("O=C(O)C(F)(F)C(F)(F)C(F)(F)C(F)(F)C(F)(F)C(F)(F)C(F)(F)F [n-PFOA]")
0.26
>>> quantitative_result("O=S(=O)(O)C(F)(F)C(F)(F)C(F)(F)C(F)(F)C(F)(F)C(F)(C(F)(F)F)C(F)(F)F")
0.09

Item under review: O=C(O)C(F)(F)C(F)(F)C(F)(F)C(F)(C(F)(F)F)C(F)(F)C(F)(F)F (stereo not shown) . Reported TTE calculated from cord:maternal serum concentrations, minimum?
0.09

Item under review: O=C(O)C(F)(F)C(F)(F)C(F)(C(F)(F)F)C(F)(F)C(F)(F)C(F)(F)F (stereo not shown) . Reported TTE calculated from cord:maternal serum concentrations, minimum?
0.09

Item under review: O=C(O)C(F)(F)C(F)(F)C(F)(F)C(F)(F)C(F)(F)C(F)(F)C(F)(F)C(F)(F)C(F)(F)F [Total PFDA, perfluorodecanoate] . Reported TTE calculated from cord:maternal serum concentrations, minimum?
0.00

Item under review: O=S(=O)(O)C(F)(F)C(F)(F)C(F)(F)C(F)(F)C(F)(F)C(F)(F)F [Total PFHxS, perfluorohexane sulfonate] . Reported TTE calculated from cord:maternal serum concentrations, minimum?
0.29

###

Test: Total PFC concentrations in maternal and cord sera by HPLC-MS/MS
Format: in vivo, human
Details: cord serum at delivery
measured endpoint: mean concentration in cord serum (ng/mL)
Express the result in ng/mL but write the number alone.

>>> quantitative_result("O=C(O)C(F)(F)C(F)(F)C(F)(F)C(F)(F)C(F)(F)C(F)(F)C(F)(F)C(F)(F)F [Total PFNA, perfluorononanoate]")
0.4
>>> quantitative_result("O=S(=O)(O)C(F)(F)C(F)(F)C(F)(F)C(F)(F)C(F)(F)C(F)(F)F [Total PFHxS, perfluorohexane sulfonate]")
0.7
>>> quantitative_result("O=S(=O)(O)C(F)(F)C(F)(F)C(F)(F)C(F)(F)C(F)(F)C(F)(F)C(F)(F)C(F)(F)F [Total PFOS, perfluorooctane sulfonate]")
1.8

Item under review: O=C(O)C(F)(F)C(F)(F)C(F)(F)C(F)(F)C(F)(F)C(F)(F)C(F)(F)C(F)(F)C(F)(F)F [Total PFDA, perfluorodecanoate] . Reported mean concentration in cord serum?
0.1

Item under review: O=C(O)C(F)(F)C(F)(F)C(F)(F)C(F)(F)C(F)(F)C(F)(F)C(F)(F)F [Total PFOA, perfluorooctanoate] . Reported mean concentration in cord serum?
1.1

###

Experiment: Transplacental transfer efficiency (TTE): cord serum at delivery divided by maternal serum concentration, present study
Assay type: in vivo, human
Details: cord serum at delivery / maternal serum at 15 weeks of gestation
Entries and their TTE calculated from cord:maternal serum concentrations, minimum
Give the value as a plain number.

Below are worked cases with known answers.
>>> quantitative_result("O=S(=O)(O)C(F)(F)C(F)(F)C(F)(F)C(F)(F)C(F)(C(F)(F)F)C(F)(F)C(F)(F)F (stereo not drawn)")
0.25
>>> quantitative_result("O=S(=O)(O)C(F)(C(F)(F)F)C(F)(F)C(F)(F)C(F)(F)C(F)(F)C(F)(F)C(F)(F)F (stereo not drawn)")
0.36

Now for a further molecule.
Item under review: O=S(=O)(O)C(F)(F)C(F)(F)C(F)(F)C(F)(F)C(F)(F)C(F)(F)C(F)(F)C(F)(F)F [n-PFOS, linear perfluorooctane sulfonate] . Reported TTE calculated from cord:maternal serum concentrations, minimum?
0.10

Ref: paper PMC3226492
